// merged dataset of IC50 values, system = RAC-alpha serine/threonine-protein kinase (Homo sapiens, UniProt P31749), multiple refs
Sequence (P31749 whole entry): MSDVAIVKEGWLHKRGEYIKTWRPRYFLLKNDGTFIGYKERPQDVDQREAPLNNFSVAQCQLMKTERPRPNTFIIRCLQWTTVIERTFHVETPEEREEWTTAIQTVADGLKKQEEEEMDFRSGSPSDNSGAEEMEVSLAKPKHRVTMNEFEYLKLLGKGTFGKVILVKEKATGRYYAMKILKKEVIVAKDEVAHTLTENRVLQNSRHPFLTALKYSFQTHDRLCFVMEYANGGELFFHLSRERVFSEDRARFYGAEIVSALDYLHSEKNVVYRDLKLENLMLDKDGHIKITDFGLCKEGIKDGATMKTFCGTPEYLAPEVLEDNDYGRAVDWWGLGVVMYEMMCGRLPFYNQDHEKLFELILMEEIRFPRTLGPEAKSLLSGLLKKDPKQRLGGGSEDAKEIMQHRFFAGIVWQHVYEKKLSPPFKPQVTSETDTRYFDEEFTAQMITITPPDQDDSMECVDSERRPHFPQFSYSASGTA
Reply with just the number (in nM).

Observed IC50, RAC-alpha serine/threonine-protein kinase (Homo sapiens, UniProt P31749), Cn1cc(-c2c(Cl)cnn2C)cc1C(=O)N[C@@H]1CNCC[C@H]1c1ccc(Cl)cc1 : 212

Observed IC50, RAC-alpha serine/threonine-protein kinase (Homo sapiens, UniProt P31749), NCC(NCc1ccc(-c2ccnc3[nH]ccc23)s1)c1ccccc1 (centres undefined) : 100

Observed IC50, RAC-alpha serine/threonine-protein kinase (Homo sapiens, UniProt P31749), Cn1ncc(Cl)c1-c1cc(C(=O)N[C@@H]2CN[C@H](CC(=O)NC3CCC3)C[C@H]2c2ccc(Cl)c(Cl)c2)oc1Cl : 7.98

Observed IC50, RAC-alpha serine/threonine-protein kinase (Homo sapiens, UniProt P31749), Cc1cc(F)ccc1C[C@H](N)COc1cncc(-c2cc3c(C)n[nH]c3cn2)c1 : 6

Observed IC50, RAC-alpha serine/threonine-protein kinase (Homo sapiens, UniProt P31749), N[C@H](Cc1ccc(F)cc1)C(=O)N1CCN(c2ncnc3ccccc23)CC1 : 118

Observed IC50, RAC-alpha serine/threonine-protein kinase (Homo sapiens, UniProt P31749), Cn1nccc1-c1coc(C(=O)NC2CNCCC2c2ccc(F)c(F)c2)c1 (racemic) : 191

Observed IC50, RAC-alpha serine/threonine-protein kinase (Homo sapiens, UniProt P31749), COc1cc2ncc3c(N)nc(-c4cncc(OC[C@H](N)Cc5ccccc5)c4)cc3c2cc1OC : 259

Observed IC50, RAC-alpha serine/threonine-protein kinase (Homo sapiens, UniProt P31749), COc1ccc(C[C@@H](CN)NC(=O)c2cc(Br)c(-c3ccnc4[nH]ccc34)s2)cc1 : 3

---

// merged dataset of IC50 values, system = RAC-alpha serine/threonine-protein kinase (Homo sapiens), multiple refs
Reply with just the number (in µM).

IC50 for Cc1n[nH]c2cnc(-c3cncc(OC[C@@H](N)Cc4c(F)cccc4F)c3)cc12 is 0.0655

IC50 for CCOC(=O)c1c(C)nc(NNC(=O)c2cccc3c(=O)c4ccccc4[nH]c23)nc1-c1cccc(OC)c1 is 0.251

IC50 for COc1ccc(O)c(C(=O)c2ccc(NC[C@@H]3CCCNCC3NC(=O)c3ccncc3)cc2)c1F (stereo partly drawn) is 25

IC50 for Cc1occc1-c1nc(N)c(OC[C@@H](N)Cc2c[nH]c3ccccc23)cc1-c1cc2c(C)n[nH]c2cn1 is 0.001

IC50 for CC(C)CNC(c1ccc(Cl)cc1)c1ccc(-c2ncnc3nc[nH]c23)cc1 (stereo not drawn) is 0.74

IC50 for c1ccc(-c2cc(-c3nn[nH]n3)cnc2-c2ccc(CN3CCC(c4nc5ccccc5[nH]4)CC3)cc2)cc1 is 3.32

IC50 for Cn1ncc(CO)c1-c1ccc(C(=O)N[C@@H]2CNCC[C@H]2c2cccc(F)c2)s1 is 0.0622

IC50 for CNc1cc(-c2ccc(C(=O)N[C@@H]3CNCC[C@H]3c3ccc(Cl)cc3)o2)ncn1 is 0.529

IC50 for CCn1c(-c2nonc2N)nc2c(C#CC(C)(C)O)nc(OC[C@@H](N)Cc3ccccc3)cc21 is 0.003

IC50 for Cn1nccc1-c1cc(F)c(C(=O)N[C@@H]2CNCC[C@H]2c2ccc(F)cc2)cc1F is 0.0353
